# key: entry, value: GI50
Test system: SF-268
test description: NCI tumour cell line growth inhibition, 48 h
The source made the active and inactive calls. No stated cut-off is given here; in the data, active = GI50 up to about 1.1 µM and inactive = higher.

## Input Can you look up the measured GI50 of COc1cc(CCCl)c(CC2=NCCc3cc(OC)c(OC)cc32)cc1OC for me?
## Output 97.3 µM (inactive)

###

Tested on: SF-268
test description: NCI tumour cell line growth inhibition, 48 h
Active and inactive are the calls of the source. Rule as the data show it: active = GI50 up to about 1.1 µM and inactive = higher. Where a SMILES comes first, the peptide text is derived from it. [ ]: non-standard residue; d: D form. The star is where a group is joined. Bn2Val = CC(C)[C@@H](C(=O)*)N(Cc1ccccc1)Cc1ccccc1; NH(4-F-benzyl) = Fc1ccc(CN*)cc1; NMeV = CN[C@H](C(=O)O)C(C)C; dNMeA = CN[C@H](C)C(=O)O
Your answer must be one of the following: TRUE (active), FALSE (inactive)

## Input I'd appreciate the recorded outcome for CCC1(COC(NC(=O)c2ccccc2)(C(F)(F)F)C(F)(F)F)COC1 from this test.
## Output FALSE

## Input I would be grateful if you could indicate the recorded call for O=[N+]([O-])C(=C(N1CCOCC1)N1CCOCC1)/C(Cl)=C(\Cl)[N+](=O)[O-] .
## Output FALSE

## Input Any idea what this test logged for CCCCC[C@H](O)[C@H](C)C=C1SCCCS1 ?
## Output FALSE

## Input Just curious, what result did OC12CC3c4ccccc4NC3C3Oc4cccc5c4C31CCN(CC1CC1)C2C5 (stereo not given) get here?
## Output FALSE

## Input Outcome? O=C(CCc1ccccc1CO)NCCc1ccccc1
## Output FALSE

## Input How did this test come out for C/C=C1/CC(C(=O)OC)N(C(=O)OCc2ccccc2)C1=S (stereo not given) ?
## Output FALSE

## Input Outcome? CC(C)[C@H](NC(=O)[C@H](C(C)C)N(Cc1ccccc1)Cc1ccccc1)C(=O)N(C)[C@H](C(=O)N1CCC[C@H]1C(=O)N(C)[C@H](C)C(=O)NCc1ccc(F)cc1)C(C)C (Bn2Val-V[NMeV]P[dNMeA]-{NH(4-F-benzyl)})
## Output FALSE

## Input In this assay, the call recorded for c1cc2c(cc1[C@@H]1OC[C@@H]3[C@H]1CO[C@H]3c1ccc3c(c1)OCO3)OCO2 was what?
## Output FALSE

###

System: SF-295
test description: NCI tumour cell line growth inhibition, 48 h
Active and inactive are the calls of the source. No stated cut-off is given here; in the data, active = GI50 up to about 1.1 µM and inactive = higher.
Outcome (select one): 1 = active, 0 = inactive

compound: CC1=CCCC(C)(O)C2CC(CCC3(C)OC3CC1)C(C)C(=O)O2 (configuration not stated)
group label: 0
//
compound: COC(=O)c1c(C)cccc1C1CN=NC12Cc1ccccc1C2=O (configuration not stated)
group label: 0
//
compound: O=C1N[C@H]2C(=O)c3c(Cl)sc(Cl)c3[C@H]2O1
group label: 0
//
compound: CCCNC(=O)CCC(C)[C@H]1CCC2C3C(C[C@H](OC(C)=O)[C@@]21C)[C@@]1(C)CCC2(C[C@H]1C[C@H]3OC(C)=O)OOC1(CCC(C)CC1)OO2 (some centres not stated)
group label: 0

## Input # lookup: test call for CC1=C(C(=O)OC(C)C)C(c2ccccc2C(F)(F)F)C(C(=O)OC(CO[N+](=O)[O-])CO[N+](=O)[O-])=C(C)N1 (configuration not stated)
## Output 0

## Input State the result this test recorded for O=C1C(C(O)(C(F)(F)F)C(F)(F)F)CCC1C(O)(C(F)(F)F)C(F)(F)F (configuration not stated) .
## Output 1

## Input // return assay outcome for COC(=O)C1CC2(C)C=CC1N(C(=O)OCc1ccccc1)C2 (configuration not stated)
## Output 0

## Input Give the logged outcome of this assay for the following compound: Cc1noc2cccc(O)c12
## Output 0

## Input // outcome(item) with item = CC1SCCc2nc3ccccc3n21 (configuration not stated)
## Output 0

## Input What outcome does the record of this test show for Cc1ccc(S(=O)(=O)c2ccc([N+](=O)[O-])o2)cc1 ?
## Output 0

## Input How did this test come out for CC(=O)/C(=C\I)c1ccccc1 ?
## Output 0

## Input Which outcome did this test record for the compound Cc1cn(C2CC(n3cncn3)C(C(C)O)O2)c(=O)[nH]c1=O (configuration not stated) ?
## Output 0

## Input What classification did COc1cc2c(oc(=O)c3c4occc4cc(OC)c23)c2cccc(O)c12 end up with in this test?
## Output 0

###

System: SK-OV-3
test description: NCI tumour cell line growth inhibition, 48 h
Calls of active or inactive are those of the source. Rule as the data show it: active = GI50 up to about 1.1 µM and inactive = higher.
Form field: GI50 (one value per entry).

compound: O=Cc1cc(C(=O)OCc2ccccc2)n(S(=O)(=O)c2ccccc2)c1
GI50: 21.6 µM (inactive)

## Input Bench note: what GI50 did C#CC(C)(C)Oc1cc(O)c2c(=O)c3ccccc3n(C)c2c1 show?
## Output > 100 µM (inactive)

## Input Given the compound CCOC(=O)C(C)(c1c(C)[nH]c2ccccc12)c1c(C)[nH]c2ccccc12 , what is its reported GI50?
## Output 26 µM (inactive)

## Input Reported GI50, compound COc1cccc(/N=N/N2CCCC2)c1 : ____
## Output > 100 µM (inactive)

###

Tested on: OVCAR-3
test description: NCI tumour cell line growth inhibition, 48 h
Activity calls are given as the source filed them. Cut-off read from the data, not from the text of the source: active = GI50 up to about 1.1 µM and inactive = higher.
API: response.call in yes (1) (active), no (0) (inactive)

Solved cases (10 shown):
compound: O=C(O)CSCc1cc2c(O)c(c1)Cc1cc(CSCC(=O)O)cc(c1O)Cc1cc(CSCC(=O)O)cc(c1O)Cc1cc(CSCC(=O)O)cc(c1O)C2
group label: no (0)
--
compound: CN(N=O)C(=O)NNC(=O)N(C)N=O
group label: no (0)
--
compound: COc1ccc(C(=O)/C=C/c2ccc(OCC#N)cc2)cc1
group label: no (0)
--
compound: COC(=O)/C=C(/C=C1/C(C#N)=C(N)N(c2ccc(Cl)cc2)C1(C)/C(=C/C(=O)OC)C(=O)OC)C(=O)OC (stereo unspecified)
group label: no (0)
--
compound: CN(C)CCCNC(=O)c1cc2/c(=C\c3ccc(N(C)C)cc3)c3ccccc3n2[n+]1C
group label: no (0)
--
compound: Nc1c(S(=O)(=O)O)cc(Nc2cccc(S(N)(=O)=O)c2)c2c1C(=O)c1ccccc1C2=O
group label: no (0)
--
compound: NCCCN(CCCN)CCc1cn(C(=O)c2ccccc2)cn1
group label: no (0)
--
compound: CC(=O)N1CCn2c1nc1cc(Cl)ccc12
group label: no (0)
--
compound: O=C(O)c1ccc(C(=O)O)c(C(=O)Nc2ccc3c(c2)C(=O)c2ccccc2-3)c1
group label: no (0)
--
compound: O=C(NNC(=S)Nc1ccc(Cl)cc1)C12CC3CC(CC(C3)C1)C2
group label: no (0)

## Input # lookup: test call for COC(=O)c1ccc(NCC2=C(Br)C(=O)C=CC2=O)cc1Cl
## Output no (0)

## Input State the result this test recorded for O=c1[nH]c(=O)n([C@H]2C[C@H](O)[C@@H](CO)O2)cc1Br [BROXURIDINE] .
## Output no (0)

## Input What is the recorded call for this compound in the test? CCCCCCSc1nc(COC(=O)NC)c(COC(=O)NC)n1C
## Output no (0)

###

Tested on: K562
test description: NCI tumour cell line growth inhibition, 48 h
Active and inactive are the calls of the source. No stated cut-off is given here; in the data, active = GI50 up to about 1.1 µM and inactive = higher.
The reply should be one of these categories: 1 = active, 0 = inactive

Field: example entries. Status: answers known.
compound: CC#C[I+]c1ccccc1
group label: 0
--
compound: COC(=O)C1(c2ccc(N(C)C)cc2OC)CCCN(C(=O)Oc2ccccc2[N+](=O)[O-])CCc2c1[nH]c1ccccc21 (configuration not stated)
group label: 0
--
compound: CC1(C)CC2CC(CC(C)(C)C2=O)C1=O
group label: 0

## Input Returns: the outcome recorded for COC(=O)C1(CCCCl)CCCN1C(=O)OC(C)(C)C (configuration not stated) in this assay.
## Output 0

## Input Hi team, can someone confirm the assay call for CC(=O)c1cccc(NCn2nnc3ccccc32)c1 ?
## Output 0

###

Tested on: SNB-75
test description: NCI tumour cell line growth inhibition, 48 h
Calls of active or inactive are those of the source. Cut-off read from the data, not from the text of the source: active = GI50 up to about 1.1 µM and inactive = higher.
Use one of these outcomes when replying: YES for active, NO for inactive

compound: NS(=O)(=O)c1ccc(NC(=O)N/N=C/c2ccccc2O)cc1
group label: NO

compound: COc1ccc(/C=C(\NC(=O)c2ccccc2)c2nc3ccccc3[nH]2)cc1
group label: NO

compound: CN(C)/N=N/c1nc2c(c(=O)n(C)c(=O)n2C)n1CC1CO1 (stereo unspecified)
group label: NO

## Input Test call, this compound: CC(Nc1ccc(Cl)c(Cl)c1)c1ccncc1 (stereo unspecified)
## Output NO

## Input Dear colleague, could you share the recorded outcome for COc1cccc(-c2cc(O)c3c(C)ccnc3n2)c1 when you have a moment?
## Output YES

## Input Test call for this compound, please: O=C(O)c1ccc(C(=O)O)c(C(=O)Nc2ccc3c(c2)C(=O)c2ccccc2-3)c1
## Output NO
